The values you see were collected from the RNAGym collection of RNA variant scans (doi:10.1002/anie.201605470).

B1: Osa-1-4 twister ribozyme (parent)
chain: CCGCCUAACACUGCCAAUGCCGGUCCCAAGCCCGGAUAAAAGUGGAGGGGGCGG

variants of: B1; assay: self-cleavage, relative activity (ratio to wild type); higher = more cleavage; co-transcriptional
Param threshold (0.08) applies to self-cleavage; output Satisfied when value >= threshold, Not satisfied when value < threshold.

{"variant-string": "G47C G49U", "assigned-category": "Not satisfied"}
{"variant-string": "C33G C52U", "assigned-category": "Not satisfied"}
{"variant-string": "C27A G22A", "assigned-category": "Satisfied"}
{"variant-string": "G45C G50C", "assigned-category": "Not satisfied"}
{"variant-string": "A17C G54C", "assigned-category": "Satisfied"}
{"variant-string": "C14U C26G", "assigned-category": "Not satisfied"}
{"variant-string": "A36U A8G", "assigned-category": "Satisfied"}
{"variant-string": "G30A G50U", "assigned-category": "Not satisfied"}
{"variant-string": "A8C C9A", "assigned-category": "Satisfied"}
{"variant-string": "C9U G35C", "assigned-category": "Satisfied"}
{"variant-string": "A28U C27U", "assigned-category": "Satisfied"}
{"variant-string": "G34U U18G", "assigned-category": "Satisfied"}
{"variant-string": "G19C U43A", "assigned-category": "Not satisfied"}
{"variant-string": "A36U C15A", "assigned-category": "Satisfied"}
{"variant-string": "G48C U37G", "assigned-category": "Satisfied"}
{"variant-string": "A16G C25G", "assigned-category": "Satisfied"}
{"variant-string": "A41C C33U", "assigned-category": "Satisfied"}
{"variant-string": "A40U A46C", "assigned-category": "Not satisfied"}
{"variant-string": "A38G U12A", "assigned-category": "Satisfied"}
{"variant-string": "G23C G51U", "assigned-category": "Not satisfied"}
{"variant-string": "A40G G53A", "assigned-category": "Satisfied"}
